- Tested on: Pyricularia oryzae
- Assay type: in vivo, Pyricularia oryzae on rice plant (variety: Asahi)
- Condition Parameters: rice blast, prevention; 200 ppm; 5 days after inoculation
Observable: Control Value (%)

>>> observed("Cc1cc(Oc2ccccc2C)nc(-n2nc(C)cc2C)n1")
100
>>> observed("CCCCCCc1cc(Oc2ccc(Cl)cc2)nc(-n2nc(C)cc2C)n1")
100
>>> observed("Cc1ccc(Oc2cc(C)nc(-n3nc(C)cc3C)n2)cc1")
100
>>> observed("Cc1cc(C)n(-c2nccc(Sc3ccccc3)n2)n1")
100
>>> observed("Cc1cc(Oc2ccc(F)cc2)nc(-n2nc(C)cc2C)n1")
100
>>> observed("CCSc1ccnc(-n2nc(C)cc2C)n1")
100
>>> observed("Cc1cc(O)nc(-n2nc(C)cc2C)n1 [Comparative Chemical 1, reference compound]")
75
>>> observed("Cc1cc(Oc2ccc(Cl)cc2Cl)nc(-n2nc(C)cc2C)n1")
100
>>> observed("Cc1cc(Oc2ccc(I)cc2)nc(-n2nc(C)cc2C)n1")
100
>>> observed("CCCCCCc1cc(Sc2ccccc2)nc(-n2nc(C)cc2C)n1")
84

* * *

- Test system: Sclerotinia sclerotiorum
- Experimental Protocol: Antimicrobial activity (mycelium growth inhibition, PDA medium)
- Assay type: cell-based
- Condition Parameters: 24° C., read-out: ED50 value
Lab note - cut at 5 µg/mL for IC50: Fulfilled if strictly below, Not fulfilled if not.

>>> label_value("CCCCc1c(C)nc(-n2nc(C)cc2C)nc1SCC")
"Not fulfilled"
>>> label_value("CCCCc1c(C)nc(-n2nc(C)cc2C)nc1OCC")
"Fulfilled"
>>> label_value("Cc1ccc(Oc2cc(C)nc(-n3nc(C)cc3C)n2)c(C)c1")
"Fulfilled"
>>> label_value("Cc1cc(C)n(-c2ncc(C)c(Sc3ccccc3)n2)n1")
"Not fulfilled"
>>> label_value("Cc1cc(C)n(-c2nccc(Sc3ccccc3)n2)n1")
"Fulfilled"
>>> label_value("Cc1cc(C)n(-c2nc(C)c(C)c(Oc3ccccc3)n2)n1")
"Fulfilled"
>>> label_value("CCOc1nc(-n2nc(C)cc2C)ncc1C")
"Not fulfilled"

* * *

- Test system: Pyricularia oryzae
- Format: in vivo, Pyricularia oryzae on rice plant (variety: Asahi)
- Condition Parameters: rice blast, prevention; 200 ppm; 5 days after inoculation
Observable: Control Value (%)

>>> observed("CCCCc1c(C)nc(-n2nc(C)cc2C)nc1Sc1ccccc1 [Compound 44]")
100
>>> observed("CCSc1nc(-n2nc(C)cc2C)ncc1C [Compound 33]")
100
>>> observed("CCCc1c(C)nc(-n2nc(C)cc2C)nc1OC [Compound 40]")
100
>>> observed("Cc1cc(Oc2cccc(C(F)(F)F)c2)nc(-n2nc(C)cc2C)n1 [Compound 21]")
100
>>> observed("Cc1cc(C)n(-c2nc(O)cc(-c3ccccc3)n2)n1 [Comparative Chemical 2, reference compound]")
76
>>> observed("CCSc1nc(-n2nc(C)cc2C)nc(C)c1C [Compound 37]")
100
>>> observed("Cc1cc(Oc2ccc([N+](=O)[O-])cc2)nc(-n2nc(C)cc2C)n1 [Compound 20]")
82
>>> observed("Cc1cc(Oc2ccc(Br)cc2)nc(-n2nc(C)cc2C)n1 [Compound 8]")
100
>>> observed("Cc1ccc(Sc2cc(C)nc(-n3nc(C)cc3C)n2)cc1 [Compound 16]")
100
>>> observed("CCOC(=O)c1ccc(Oc2cc(C)nc(-n3nc(C)cc3C)n2)cc1 [Compound 22]")
100
>>> observed("CCCCc1c(C)nc(-n2nc(C)cc2C)nc1OCC [Compound 41]")
100
>>> observed("Cc1cc(Oc2ccc([N+](=O)[O-])c(C)c2)nc(-n2nc(C)cc2C)n1 [Compound 31]")
100
>>> observed("Cc1cc(C)n(-c2nccc(Oc3ccccc3)n2)n1 [Compound 3]")
100
>>> observed("Cc1cc(Oc2ccc(C(C)(C)C)cc2)nc(-n2nc(C)cc2C)n1 [Compound 15]")
100
>>> observed("Cc1cc(Oc2ccc(C#N)cc2)nc(-n2nc(C)cc2C)n1 [Compound 19]")
100
>>> observed("COc1ccc(Oc2cc(C)nc(-n3nc(C)cc3C)n2)cc1 [Compound 17]")
100
>>> observed("CCOc1nc(-n2nc(C)cc2C)nc(C)c1C [Compound 36]")
100
>>> observed("CCOc1nc(-n2nc(C)cc2C)ncc1C [Compound 32]")
100

* * *

- System: Pyricularia oryzae
- Format: in vivo, Pyricularia oryzae on rice plant (variety: Asahi)
- Condition Parameters: rice blast, prevention; 200 ppm; 5 days after inoculation
Observable: Control Value (%)

>>> observed("Cc1ccc(C)c(Oc2cc(C)nc(-n3nc(C)cc3C)n2)c1")
100
>>> observed("CSc1ccc(Oc2cc(C)nc(-n3nc(C)cc3C)n2)cc1")
100
>>> observed("Cc1cc(C)n(-c2ncc(C)c(Sc3ccccc3)n2)n1")
84
>>> observed("Cc1cc(Oc2ccc(Cl)c(Cl)c2)nc(-n2nc(C)cc2C)n1")
92
>>> observed("Cc1cc(C)cc(Oc2cc(C)nc(-n3nc(C)cc3C)n2)c1")
100
>>> observed("Cc1cc(Oc2ccc(C(C)C)cc2)nc(-n2nc(C)cc2C)n1")
100
>>> observed("Cc1cc(Sc2ccc(Cl)cc2)nc(-n2nc(C)cc2C)n1")
100
>>> observed("Cc1cc(Oc2ccccc2Cl)nc(-n2nc(C)cc2C)n1")
100
>>> observed("CCOc1ccnc(-n2nc(C)cc2C)n1")
100
>>> observed("Cc1cccc(Oc2cc(C)nc(-n3nc(C)cc3C)n2)c1")
100

* * *

The reader will find reported Degree of chemical injury values listed item by item below.
- Tested on: rice plant
- Condition Parameters: blast curative test, 200 ppm
Observable: Degree of chemical injury

>>> observed("CCSc1nc(-n2nc(C)cc2C)nc(C)c1C")
0
>>> observed("CCOc1ccnc(-n2nc(C)cc2C)n1")
0
>>> observed("CCCCc1c(C)nc(-n2nc(C)cc2C)nc1OCC")
0
>>> observed("CCCc1c(C)nc(-n2nc(C)cc2C)nc1OC")
0
>>> observed("Cc1cc(C)n(-c2nc(C)c(C)c(Oc3ccccc3)n2)n1")
0
>>> observed("Cc1cc(C)n(-c2ncc(C)c(Oc3ccccc3)n2)n1")
0
>>> observed("Cc1cc(C)n(-c2nc(C)c(C)c(Sc3ccccc3)n2)n1")
0
>>> observed("COc1ccc(Oc2cc(C)nc(-n3nc(C)cc3C)n2)cc1")
0
>>> observed("Cc1cc(C)n(-c2nc(O)cc(-c3ccccc3)n2)n1 [Comparative Chemical 2, reference compound]")
5
>>> observed("CCOc1nc(-n2nc(C)cc2C)nc(C)c1C")
9
>>> observed("CCSc1ccnc(-n2nc(C)cc2C)n1")
0
>>> observed("Cc1ccc(Sc2cc(C)nc(-n3nc(C)cc3C)n2)cc1")
0
>>> observed("CCCCCCc1cc(Sc2ccccc2)nc(-n2nc(C)cc2C)n1")
0
>>> observed("Cc1cccc(Oc2cc(C)nc(-n3nc(C)cc3C)n2)c1")
0
>>> observed("Cc1cc(Oc2ccc(Cl)c(Cl)c2)nc(-n2nc(C)cc2C)n1")
0
>>> observed("Cc1cc(Oc2ccccc2C)nc(-n2nc(C)cc2C)n1")
0
>>> observed("CCCCCCc1cc(Oc2ccc(Cl)cc2)nc(-n2nc(C)cc2C)n1")
0
>>> observed("CCOc1nc(-n2nc(C)cc2C)ncc1C")
0
>>> observed("Cc1cc(Oc2ccc(Cl)cc2Cl)nc(-n2nc(C)cc2C)n1")
0
>>> observed("Cc1cc(Oc2ccc(C(C)(C)C)cc2)nc(-n2nc(C)cc2C)n1")
0

* * *

- System: Pyricularia oryzae
- Assay type: in vivo, Pyricularia oryzae on rice plant (variety: Asahi)
- Condition Parameters: rice blast, prevention; 200 ppm; 5 days after inoculation
# Control Value per entry
Observable: Control Value (%)

>>> observed("Cc1cc(C)n(-c2nc(C)c(C)c(Oc3ccccc3)n2)n1 [Compound 38]")
100
>>> observed("Cc1cc(Oc2ccc(Cl)c(C)c2)nc(-n2nc(C)cc2C)n1 [Compound 26]")
100
>>> observed("Cc1cc(C)n(-c2ncc(C)c(Oc3ccccc3)n2)n1 [Compound 34]")
92
>>> observed("Cc1ccc(Oc2cc(C)nc(-n3nc(C)cc3C)n2)c(C)c1 [Compound 27]")
100
>>> observed("CCCCc1c(C)nc(-n2nc(C)cc2C)nc1SCC [Compound 42]")
100
>>> observed("Cc1cc(C)n(-c2nc(C)c(C)c(Sc3ccccc3)n2)n1 [Compound 39]")
100
>>> observed("Cc1cc(Oc2cccc(Cl)c2)nc(-n2nc(C)cc2C)n1 [Compound 7]")
100
>>> observed("Cc1cc(C)c(C)c(Oc2cc(C)nc(-n3nc(C)cc3C)n2)c1 [Compound 30]")
100
>>> observed("CCCCCCc1cc(SCC)nc(-n2nc(C)cc2C)n1 [Compound 45]")
92
>>> observed("CCCCc1c(C)nc(-n2nc(C)cc2C)nc1Oc1ccccc1 [Compound 43]")
100
